The origin of these recorded values is PubChem BioAssay (NCI).

Tested on: NCI-H23 lung
Assay: NCI tumour cell line growth inhibition, 48 h
Where a SMILES comes first, the peptide text is derived from it. [ ]: non-standard residue; d: D form. The star is where a group is joined. ξ: configuration not given here. ξF = NC(Cc1ccccc1)C(=O)O; Cbz = O=C(OCc1ccccc1)*; Aib = CC(C)(N)C(=O)O; NHNH2 = NN*

Compound	Tested Target	TGI
COc1ccc(NC(=O)C(=O)c2c(O)c3ccc(O)cc3oc2=O)c([N+](=O)[O-])c1	NCI-H23 lung	> 100 µM
CCN(CC)c1ccc(/C=N/NC(=O)CSc2nc3ccccc3c(=O)n2CCc2ccc(S(N)(=O)=O)cc2)c(O)c1	NCI-H23 lung	> 100 µM
CCOC(=O)C1Cc2c(cc3c4c(cccc24)N(C(C)=O)C3)N(C)C1 (stereo unspecified)	NCI-H23 lung	> 100 µM
CN(CCN1C(=O)c2cc([N+](=O)[O-])cc3cc([N+](=O)[O-])cc(c23)C1=O)CCN1C(=O)c2cc([N+](=O)[O-])cc3cc([N+](=O)[O-])cc(c23)C1=O	NCI-H23 lung	27.9 µM
CCOC(=O)c1cc(C(=O)c2cc(OC)c(OC)c(OC)c2)n2ncccc12	NCI-H23 lung	> 100 µM
CN(C)C=Nc1ccn(CCO)c(=O)n1	NCI-H23 lung	> 100 µM
c1ccc([P+](CCSCCSCC[P+](c2ccccc2)(c2ccccc2)c2ccccc2)(c2ccccc2)c2ccccc2)cc1	NCI-H23 lung	> 100 µM
CC(ON(C(c1ccccc1)C(C)C)C(C)(C)C)c1ccccc1 (stereo unspecified)	NCI-H23 lung	63.9 µM
CNNC1=NS(=O)(=O)c2cc(C#N)c(Cl)cc2S1	NCI-H23 lung	> 10 µM
CC(C)OP(=O)(OC(C)C)/C(Cl)=N/Nc1ccc([N+](=O)[O-])cc1	NCI-H23 lung	> 100 µM
c1ccc2sc(SCCSc3nc4ccccc4s3)nc2c1	NCI-H23 lung	> 100 µM
CC(C)(NC(=O)OCc1ccccc1)C(=O)NC(Cc1ccccc1)C(=O)NN (stereo unspecified) (Cbz-[Aib]-[ξF]-NHNH2)	NCI-H23 lung	> 100 µM
O=C1NC(N2CCOCC2)=N/C1=C\c1ccc(Cl)cc1	NCI-H23 lung	> 100 µM
CC(C)(C)c1ccc(S(=O)(=O)Oc2ccc3c4c(c(=O)oc3c2)CCCCC4)cc1	NCI-H23 lung	> 100 µM
COc1ccc(C2=N[C@@H](Cc3ccccc3)C(=O)Nc3ccsc32)cc1	NCI-H23 lung	39.6 µM
CC(=O)C(=[N+]=[N-])C(=O)N1CCOC1=O	NCI-H23 lung	> 10 µM
O=C1NC(=O)C(F)(n2cc(F)c(=O)[nH]c2=O)C(O)N1 (stereo unspecified)	NCI-H23 lung	> 10 µM
COC(=O)C(C(=O)C(=O)Nc1c(C)cccc1C)c1cnc2ccccc2n1 (stereo unspecified)	NCI-H23 lung	> 100 µM
CC(C)(O)[C@@H]1CC[C@@]2(C)CCCC(O)C2(O)C1 (stereo partly specified)	NCI-H23 lung	> 100 µM
Cc1ccc(S(=O)(=O)NC(=O)NCCc2cnc[nH]2)cc1	NCI-H23 lung	> 100 µM
COc1ccc(C2=C(Cl)c3cc(OC)c(OC)cc3C2OC)cc1OC (stereo unspecified)	NCI-H23 lung	> 100 µM
